- Tested on: rVSIV-ΔG-MarV-GP pseudotype
- TEST_DESCRIPTION: organism not typed
- Assay type: cell-based, Marburg virus
- ASSAY_CONDITIONS: HEK293, 24 h, read-out: ICMarV50
QUANTITY_MEASURED: pIC50
Convention used: pIC50 is expressed as -log10 of the molar concentration.

# example entries with known answers
// lookup pIC50 for CCN1CCN(CCC(=O)O[C@@H]2C[C@@H]3CC[C@@]2(C)C3(C)C)CC1 [Compound 12]
5.00

And for CCCCN(CCCC)CC(=O)O[C@@H]1C[C@@H]2CC[C@@]1(C)C2(C)C [Compound 15] ?
4.96

How about this molecule: CCCCN(CCCC)CCC(=O)O[C@@H]1C[C@@H]2CC[C@@]1(C)C2(C)C [Compound 16]
5.22

Others:
# input molecule: CC1(C)[C@H]2CC[C@]1(C)[C@H](OC(=O)CCN1CCNCC1)C2 [Compound 14] ; wanted: its pIC50
5.00

Lookup CC1CCN(CC(=O)O[C@@H]2C[C@@H]3CC[C@@]2(C)C3(C)C)CC1 [Compound 5]
4.55

Moving on to CC1(C)[C@H]2CC[C@]1(C)[C@H](OC(=O)CN1CCNCC1)C2 [Compound 13]
4.70

Can you check CC1(C)[C@H]2CC[C@]1(C)[C@H](OC(=O)CCN1CCCCC1)C2 [Compound 4] next?
5.05

Subsequent entry: CCN1CCN(CC(=O)O[C@@H]2C[C@@H]3CC[C@@]2(C)C3(C)C)CC1 [Compound 11]
4.54
